Experiment: Pharmacokinetics in monkeys, single i.v.
Conditions: female, rhesus monkey, plasma, iv, 1 mg/kg
readout.kind: clearance (L/h/kg)
Numbers only, in L/h/kg.

INPUT: Recorded clearance of "COc1cc(N[C@H](C(=O)c2c[nH]c3ccc(OC(F)(F)F)cc23)c2ccc(Cl)cc2OC)cc(S(C)(=O)=O)c1" , please.
OUTPUT: 0.1

====

Assay: Pharmacokinetics in mice, i.v. and oral
Format: in vivo, CD-1 mice
Conditions: male, CD-1, plasma; mouse oral 3 mg/kg; read-out: AUC(0-24h)
readout.kind: AUC(0-t)
Could you write the number and then its unit?

INPUT: Recorded AUC(0-t) of "COc1cc(N[C@H](C(=O)c2c[nH]c3ccc(OC(F)(F)F)cc23)c2ccc(Cl)cc2OC)cc(S(C)(=O)=O)c1" , please.
OUTPUT: 5780 ng·h/mL
